Reference source for all entries: the supplement of paper PMC7801607

This section presents compounds with their documented % inhibition of gametocyte viability values.
Tested on: Plasmodium falciparum NF54 stage IV/V gametocytes
protocol-notes: % inhibition of gametocyte viability (luciferase reporter); higher = more inhibition
condition-notes: 1 µM; 48 h

Guide cases for % inhibition of gametocyte viability, answers given:
>>> endpoint_value("CC1CN(c2ncnc3c2c(-c2ccccc2)cn3-c2ccc(F)cc2)CC(C)O1 (stereo not drawn)")
"< 0%"
>>> endpoint_value("COc1nc2ccc(Br)cc2cc1[C@@H](c1ccccc1)[C@@](O)(CCN(C)C)c1cccc2ccccc12")
"14.4%"
>>> endpoint_value("CN(C)CC(=O)Nc1ccc2[nH]c(=O)c3ccccc3c2c1")
"< 0%"
>>> endpoint_value("CN1CCN(Cc2ccc(-c3cnc4[nH]cc(-c5ccc6[nH]ccc6c5)c4c3)cc2)CC1")
"< 0%"
>>> endpoint_value("COc1c(NC(=O)[C@H]2CC[C@@H](COc3ccc([N+](=O)[O-])cc3)CC2)c(F)cc2c(=O)c(C(=O)O)cn(C3CC3)c12")
"< 0%"
>>> endpoint_value("FC(F)(F)c1cc(C(F)(F)F)c2ccc3nc(-c4nnco4)cn3c2n1")
"1.44%"
>>> endpoint_value("COc1cccc(N2CCN(C3=Nc4c(F)cccc4[C@H](CC(=O)O)N3c3cc(C(F)(F)F)ccc3OC)CC2)c1")
"< 0%"

Next up:
stdin: I'm curious: which % inhibition of gametocyte viability was measured for "O=C(/C=C\n1cnc(-c2cc(C(F)(F)F)cc(C(F)(F)F)c2)n1)NNc1ccccn1" tested on Plasmodium falciparum NF54 stage IV/V gametocytes?
stdout: 13.4%
